molecular target: HLA-A*11:01; assay: IEDB peptide-MHC binding, purified MHC/competitive/radioactivity; filed as Kd, often an IC50 or EC50 that approximates it; bounds were set here for any values at or beyond the usual limits of such assays; conditions: source organism: Mammarenavirus guanaritoense
experimental.endpoint: Kd

Exam item: Give the measured Kd for RSKIEVGIRH
Marked response: ≥ 29 µM

Exam item: Tell us which Kd value is on record for TCITSMAER
Marked response: 17.4 µM

* * *

biological target: HLA-C*07:02; assay: IEDB peptide-MHC binding, purified MHC/direct/fluorescence; filed as Kd, often an IC50 or EC50 that approximates it; bounds were set here for any values at or beyond the usual limits of such assays; conditions: source organism: Vaccinia virus Tian Tan
experimental.endpoint: pKd
# pKd: negative log10 of molar concentration; output just the value

Exam item: Identify measured pKd obtained with HLA-C*07:02 for YYKDDISYF .
Marked response: 7.54

* * *

molecular target: HLA-B*07:02; assay: IEDB peptide-MHC binding, purified MHC/direct/fluorescence; filed as Kd, often an IC50 or EC50 that approximates it; bounds were set here for any values at or beyond the usual limits of such assays; conditions: source organism: West Nile virus
pKd: −log10 of the molar value.
experimental.endpoint: pKd

Exam item: Specify pKd for FVDVGVSAL , system HLA-B*07:02.
Marked response: ≤ 4.70

* * *

target: HLA-B*58:01; test: IEDB peptide-MHC binding, purified MHC/direct/fluorescence; filed as Kd, often an IC50 or EC50 that approximates it; bounds were set here for any values at or beyond the usual limits of such assays; conditions: source organism: Orthohantavirus andesense
experimental.endpoint: Kd

Exam item: Using the record for AYDHGNVIL , state its measured Kd.
Marked response: ≥ 20 µM

* * *

molecular target: HLA-B*18:01; assay: IEDB peptide-MHC binding, purified MHC/competitive/radioactivity; filed as Kd, often an IC50 or EC50 that approximates it; bounds were set here for any values at or beyond the usual limits of such assays; details: source organism: Mammarenavirus brazilense
pKd: −log10 of the molar value.
Field: pKd. Provide a value for each of the sequences that follow.

Exam item: Answer with reported pKd of GDEALRGFL
Marked response: ≤ 4.29

Exam item: // Input: ADMSKLISL . Output its pKd only.
Marked response: ≤ 4.11

Exam item: Annotate the sequence QDPLLGTLS with its measured pKd.
Marked response: ≤ 4.11

* * *

molecular target: HLA-A*31:01; test: IEDB peptide-MHC binding, purified MHC/direct/fluorescence; filed as Kd, often an IC50 or EC50 that approximates it; bounds were set here for any values at or beyond the usual limits of such assays; details: source organism: Salmonella enterica subsp. enterica serovar Typhimurium
experimental.endpoint: Kd

Exam item: Please supply the value of reported Kd for the item FMIDWILDA
Marked response: ≥ 20 µM

* * *

molecular target: HLA-A*03:01; experiment: IEDB peptide-MHC binding, purified MHC/direct/fluorescence; filed as Kd, often an IC50 or EC50 that approximates it; bounds were set here for any values at or beyond the usual limits of such assays; conditions: source organism: Yellow fever virus
experimental.endpoint: Kd

Exam item: Lab note: record Kd of FHKRDMRLL tested on HLA-A*03:01.
Marked response: ≥ 20 µM

* * *

biological target: HLA-B*27:03; test: IEDB peptide-MHC binding, purified MHC/direct/fluorescence; filed as Kd, often an IC50 or EC50 that approximates it; bounds were set here for any values at or beyond the usual limits of such assays; conditions: source organism: Escherichia coli O157:H7 str. EC4486
pKd: −log10 of the molar value.
experimental.endpoint: pKd

Exam item: Let me know recorded pKd for YAMMSLFDM , thanks.
Marked response: ≤ 4.70

* * *

molecular target: HLA-A*11:01; test: IEDB peptide-MHC binding, purified MHC/direct/fluorescence; filed as Kd, often an IC50 or EC50 that approximates it; bounds were set here for any values at or beyond the usual limits of such assays; settings: source organism: Camelpox virus M-96
experimental.endpoint: Kd (nM)
// units = nM; emit number, no label

Exam item: Report Kd from HLA-A*11:01 testing of ALYSYASAK
Marked response: 11.7

* * *

molecular target: HLA-B*46:01; experiment: IEDB peptide-MHC binding, purified MHC/direct/fluorescence; filed as Kd, often an IC50 or EC50 that approximates it; bounds were set here for any values at or beyond the usual limits of such assays; settings: source organism: Marburg virus - Musoke, Kenya, 1980
experimental.endpoint: Kd

Exam item: // Input: IFDDLQGSL . Output its Kd only.
Marked response: ≥ 20 µM

* * *

molecular target: HLA-A*03:01; experiment: IEDB peptide-MHC binding, purified MHC/competitive/fluorescence; filed as Kd, often an IC50 or EC50 that approximates it; bounds were set here for any values at or beyond the usual limits of such assays; details: source organism: Escherichia coli B171
experimental.endpoint: pKd
In plain terms, pKd is the concentration in mol/L turned into minus its base-10 logarithm.

Exam item: Report measured pKd; entry is VMAGVFARY
Marked response: 7.67

* * *

molecular target: HLA-B*51:01; assay: IEDB peptide-MHC binding, purified MHC/direct/fluorescence; filed as Kd, often an IC50 or EC50 that approximates it; bounds were set here for any values at or beyond the usual limits of such assays; details: source organism: Squirrelpox virus
pKd: −log10 of the molar value.
experimental.endpoint: pKd

Exam item: Please tell me the measured pKd for MACHRVLTY ; system: HLA-B*51:01.
Marked response: ≤ 4.70

* * *

target: HLA-A*24:03; assay: IEDB peptide-MHC binding, purified MHC/direct/fluorescence; filed as Kd, often an IC50 or EC50 that approximates it; bounds were set here for any values at or beyond the usual limits of such assays; settings: source organism: Reston ebolavirus
pKd: −log10 of the molar value.
experimental.endpoint: pKd

Exam item: Tell us which pKd value is on record for LPRERFRKT
Marked response: ≤ 4.70

* * *

molecular target: HLA-A*32:15; assay: IEDB peptide-MHC binding, purified MHC/competitive/fluorescence; filed as Kd, often an IC50 or EC50 that approximates it; bounds were set here for any values at or beyond the usual limits of such assays; conditions: source organism: Coxiella burnetii Dugway 5J108-111
experimental.endpoint: Kd (nM)
Hi! Could you send only the number? It should be in nM, unit omitted.

Exam item: Give Kd for the following sequence: MTFPVSLEY
Marked response: 18

* * *

biological target: HLA-A*31:01; test: IEDB peptide-MHC binding, purified MHC/competitive/radioactivity; filed as Kd, often an IC50 or EC50 that approximates it; bounds were set here for any values at or beyond the usual limits of such assays; details: source organism: Mammarenavirus juninense
experimental.endpoint: Kd

Exam item: Report Kd for TGINENYAK
Marked response: ≥ 53.4 µM

* * *

biological target: HLA-A*03:01; assay: IEDB peptide-MHC binding, purified MHC/direct/fluorescence; filed as Kd, often an IC50 or EC50 that approximates it; bounds were set here for any values at or beyond the usual limits of such assays; settings: source organism: Mycobacterium tuberculosis
pKd: −log10 of the molar value.
experimental.endpoint: pKd

Exam item: Find the measured pKd of RPRLHSISF with HLA-A*03:01 as test system.
Marked response: ≤ 4.70

Exam item: Under HLA-A*03:01, report pKd for RPAGARAAF
Marked response: ≤ 4.70

* * *

biological target: HLA-B*45:06; assay: IEDB peptide-MHC binding, purified MHC/competitive/fluorescence; filed as Kd, often an IC50 or EC50 that approximates it; bounds were set here for any values at or beyond the usual limits of such assays; conditions: source organism: Orthohantavirus puumalaense
experimental.endpoint: Kd

Exam item: Query Kd for AELGAFFSI
Marked response: ≥ 5 µM

* * *

Hi there, I'd appreciate the recorded Kd for every entry that follows.
target: HLA-B*15:01; test: IEDB peptide-MHC binding, purified MHC/competitive/fluorescence; filed as Kd, often an IC50 or EC50 that approximates it; bounds were set here for any values at or beyond the usual limits of such assays; settings: source organism: Homo sapiens

Exam item: State recorded Kd with HLA-B*15:01, entry FWAWSVLRV , no comment.
Marked response: ≥ 20 µM

Exam item: State, for HLA-B*15:01, measured Kd of the sequence listed here: IYDFYYLDY
Marked response: ≥ 20 µM

* * *

target: HLA-A*11:01; test: IEDB peptide-MHC binding, purified MHC/direct/fluorescence; filed as Kd, often an IC50 or EC50 that approximates it; bounds were set here for any values at or beyond the usual limits of such assays; settings: source organism: Orthohantavirus andesense
pKd: −log10 of the molar value.
experimental.endpoint: pKd

Exam item: Return reported pKd for target or system HLA-A*11:01, item AYDHGNVIL .
Marked response: ≤ 4.70

* * *

biological target: HLA-A*02:03; experiment: IEDB peptide-MHC binding, purified MHC/competitive/radioactivity; filed as Kd, often an IC50 or EC50 that approximates it; bounds were set here for any values at or beyond the usual limits of such assays; conditions: source organism: Dengue virus 2 Peru/IQT2913/1996
experimental.endpoint: Kd (nM)
Give the value in nM but do not write nM after it.

Exam item: Recall and state the measured Kd for LMAMDLGEL .
Marked response: 6.78
